Test system: gastric acid secretion
protocol-summary: Inhibiting effect of gastric acid secretion, perfused stomach, pentagastrin-stimulated (Ghosh & Schild)
Assay type: in vivo, male SD rat
assay-context: urethane-anesthetized SD rat, pentagastrin 0.05 μg/kg/min, injected through femoral vein; ratio of area index to that of PGE2
measure-name: Inhibiting effect of gastric acid secretion, Relative effect (PGE2 = 1)
One number for each entry.

Answered cases to consult:
[
  {
    "compound": "O=C(O)COc1cccc2c1O[C@H]1C[C@@H](O)[C@H](/C=C/[C@@H](O)c3ccccc3Cl)[C@@H]21 (relative stereo)",
    "test-value": 10
  },
  {
    "compound": "CCCCCC[C@H](O)/C=C/[C@@H]1[C@H]2c3cccc(OCC(=O)O)c3O[C@H]2C[C@H]1O (relative stereo)",
    "test-value": 13
  }
]

Let us move to another entry and its Inhibiting effect of gastric acid secretion, Relative effect (PGE2 = 1).
Ask | Given CCCCCC(C)(C)[C@H](O)/C=C/[C@@H]1[C@H]2c3cccc(OCC(=O)O)c3O[C@H]2C[C@H]1O (relative stereo) , state its recorded Inhibiting effect of gastric acid secretion, Relative effect (PGE2 = 1).
Reply | 85

Where these numbers come from: patent US4775692A
